Test system: PF3D7_0420300 AP2 domain 1 (GST-tagged)
Test: gcPBM binding intensity (ln(normalized median fluorescence intensity)); higher = stronger DNA binding
Over roughly 25,000 sequences, “ln(normalized median fluorescence intensity)” has its median near 9.3; the highest 2% begin near 10. Only a selection was taken, and the highest values are over-represented in it overall.
Kindly return MET if reported gcPBM binding intensity (ln) is no lower than 10; return NOT MET if it is lower.

The examples below pair each entry with its known result.
Asked: Threshold query (gcPBM binding intensity (ln) >= 10) on AAAAAAAAAAAAGAAACACACACATATATATATATA [CACACA_site8525]
Given back: NOT MET

Asked: Threshold query (gcPBM binding intensity (ln) >= 10) on CCCATGCATTTTTGCACACACATATATTTATAAATA [CACACA_site6785]
Given back: NOT MET

Asked: Threshold query (gcPBM binding intensity (ln) >= 10) on GTACCTATTTCATACACACACACACCCAAACAAACA [CACACA_site976]
Given back: MET

Moving on to the next sequence.
Asked: Threshold query (gcPBM binding intensity (ln) >= 10) on ATATTATAATTAAAACGTACGTATTTATGAATTCAT [XGTACX_site1047]
Given back: NOT MET

* * *

Tested on: PF3D7_0420300 AP2 domain 1 (GST-tagged)
Assay: gcPBM binding intensity (ln(normalized median fluorescence intensity)); higher = stronger DNA binding
Over roughly 25,000 sequences, “ln(normalized median fluorescence intensity)” has its median near 9.3; the highest 2% begin near 10. Only a selection was taken, and the highest values are over-represented in it overall.
measured.attribute: gcPBM binding intensity (ln)

Asked: Requested field: gcPBM binding intensity (ln). Item: ATATATATATATATATATATAATAAAAGATCATTTA [XGTACX_negctrl_site371]
Given back: 9.09

Asked: Requested field: gcPBM binding intensity (ln). Item: TTTTATGATAATTTTGCACACACTTAGGAAAAATTA [CACACA_site1556]
Given back: 9.31

Asked: Requested field: gcPBM binding intensity (ln). Item: TTTTTATATTTTATTAGTACTTATTATATATATAAT [XGTACX_site4900]
Given back: 9.26

Asked: Requested field: gcPBM binding intensity (ln). Item: AGCACGCACAGACACACACACATATTTATATTTATA [CACACA_site6291]
Given back: 9.94

Asked: Requested field: gcPBM binding intensity (ln). Item: TTTACATATTTATATACACACTTTTGCGTGCGTGGT [CACACA_site6647]
Given back: 9.21

* * *

System: PF3D7_0420300 AP2 domain 1 (GST-tagged)
Assay: gcPBM binding intensity (ln(normalized median fluorescence intensity)); higher = stronger DNA binding
In all, about 25,000 sequences were measured (“ln(normalized median fluorescence intensity)”: median about 9.3, highest 2% from about 10 on). The sample holds the highest values, similar sequences and a random draw of the others, so the mix is not that of the screen.
measured.attribute: gcPBM binding intensity (ln)
Lab note: write the figure by itself, no unit.

Asked: Requested field: gcPBM binding intensity (ln). Item: ACAGAAAAAAGACACACACACATAATATACATACAT [CACACA_site6991]
Given back: 10.2

Asked: Requested field: gcPBM binding intensity (ln). Item: TAAAAAAAAACAGAAACACACATTATTCATATATAT [CACACA_site2049]
Given back: 9.77

Asked: Requested field: gcPBM binding intensity (ln). Item: CATACACAGAAACACACACACATATATATATATATA [CACACA_site4519]
Given back: 9.79

Asked: Requested field: gcPBM binding intensity (ln). Item: CATTATAAGAAACACACACACATATATATATATATA [CACACA_site1051]
Given back: 9.73

Now, please, on to the next sequence.
Asked: Requested field: gcPBM binding intensity (ln). Item: ATACAGAAAAAAAACACACACACATAATATACATAC [CACACA_site1933]
Given back: 10.1
